Test system: UO-31
procedureText: NCI tumour cell line growth inhibition, 48 h
The source made the active and inactive calls. Cut-off read from the data, not from the text of the source: active = GI50 up to about 1.1 µM and inactive = higher.
// one of true (active), false (inactive), no free text

Examples from the recorded data:
compound	qualitativeLabel
CC1OC2OC3C(OCC(O)C3O)OC(=O)[C@]34CCC(C)(C)CC3C3=CCC5[C@@]6(C)C[C@H](O)[C@H](OC7OC(CO)C(O)C(O)C7OC7OCC(OC(=O)CC(C)(O)CC(=O)OC1C(OC1OC(CO)C(O)C(O)C1O)C2O)C(O)C7O)[C@@](C)(CO)C6CC[C@@]5(C)[C@]3(C)CC4 (some centres undefined)	false
CCN1C(=O)C(=C/C=C/C=C2/N(C)c3ccccc3C2(C)C)C(=O)N(CC)C1=S	false
C=C1C(=O)OC2C1CC[C@H](C)C13OC(=O)CC1[C@@]23C (some centres undefined)	false
O=C(NCCCCN(CCCNC(=O)C(F)(F)F)Cc1ccccc1)C(F)(F)F	false
NC(=O)NNc1nc(-c2ccccc2)cs1	false

-- ask Tell me the recorded outcome of this test for N#Cc1c(N2CCCC2)nsc1NCc1ccccc1 .
-- reply false

-- ask Kindly provide the recorded test outcome for the following compound: Cc1cnc2[nH]c(-c3ccccc3)cc(=O)c2c1
-- reply true

====

Test system: SR
procedureText: NCI tumour cell line growth inhibition, 48 h
Active and inactive are the calls of the source. No stated cut-off is given here; in the data, active = GI50 up to about 1.1 µM and inactive = higher.
resultType: GI50

These recorded examples may help you get a feel for the data.
> print(dat)
                                   compound  system  resulttype        valuemeasured
1           COc1ccc(OC)c(/C(C)=N/NC(N)=S)c1      SR        GI50  > 100 µM (inactive)
2  Nc1nc2c(nnn2C2C=C(CO)C(O)C2O)c(=O)[nH]1 (stereo unspecified)      SR        GI50  > 100 µM (inactive)
3  CCCCCNC(=O)OC1CCn2c1nc1c2C(=O)C(C)=C(N2CC2)C1=O (stereo unspecified)      SR        GI50   20.7 µM (inactive)
4  N=C(N)c1csc([C@@H]2O[C@H](CO)[C@@H](O)[C@H]2O)n1      SR        GI50  > 100 µM (inactive)
5  CCCCCCCCCCCCCCCCOP(=O)([O-])OCC[N+](C)(C)C1CC(C)(C)N(O)C(C)(C)C1      SR        GI50  > 100 µM (inactive)

-- ask Return reported GI50. Input compound: c1ccc2c(c1)c1ccccc1n2Cn1c2ccccc2c2ccccc21
-- reply > 100 µM (inactive)

====

// GI50 lookup, one value per entry
System: 786-0
procedureText: NCI tumour cell line growth inhibition, 48 h
Activity calls are given as the source filed them. No stated cut-off is given here; in the data, active = GI50 up to about 1.1 µM and inactive = higher. Square brackets hold non-standard residues; d marks the D form. Peptide text beside a SMILES is read from it. * marks the point of attachment. X26 = COC1=CC(=O)N(C(=O)[C@@H](O*)C(C)C)[C@H]1Cc1ccccc1; NMeV = CN[C@H](C(=O)O)C(C)C; Hexanoyl = CCCCCC(=O)*

Example cases with answers are listed next.
compound	resultType	valueMeasured
Cc1cnc2[nH]c(-c3ccccc3)cc(=O)c2c1	GI50	0.043 µM (active)
CCCN(CCC)CCc1cc(C(C)=O)n(S(=O)(=O)c2ccc(C)cc2)c1	GI50	> 100 µM (inactive)
CC(C)(C)c1cc2ccc(C(N)=O)cc2c(=O)[nH]1	GI50	> 100 µM (inactive)
C[C@]12CCC3[C@@H](CCC45OC4C(=O)CC[C@]35C)C1Cc1cnn(-c3ccc(F)cc3)c1N2 (stereo not given in full)	GI50	18.6 µM (inactive)
c1ccc(CCCCNCc2cc(CNCCCCc3ccccc3)cc(CNCCCCc3ccccc3)c2)cc1	GI50	1.31 µM (inactive)
Cc1ccc(S(=O)(=O)N/N=C2\C=CC3(CC2)C(=O)N(I)c2ccccc23)cc1 (stereo not given)	GI50	> 100 µM (inactive)
COC(=O)C(C(=O)C(=O)Nc1cccc(OC)c1)c1cnc2ccccc2n1 (stereo not given)	GI50	> 100 µM (inactive)
c1cc2ccc1C1NCCCN1CCN1CCCNC1c1ccc(cc1)C1NCCCN1CCN1CCCNC21 (stereo not given)	GI50	> 100 µM (inactive)

-- ask Tell me GI50 reported for CC(N)/C(N)=N/O (stereo not given)
-- reply > 100 µM (inactive)

-- ask Supply GI50 value. Item: COc1ccc(S(=O)(=O)NC(C)C(=O)O)cc1 (stereo not given)
-- reply > 100 µM (inactive)

-- ask Item Cc1ccc(-[n+]2cc([O-])on2)cc1 : provide GI50
-- reply > 100 µM (inactive)

-- ask Consider the compound COc1ccc(CCN2CCOCC2)cc1 and give its recorded GI50.
-- reply > 100 µM (inactive)

-- ask For the compound Nc1nc(Cl)nc2c1ncn2C1CCC(COP(=O)(O)OP(=O)(O)OP(=O)(O)O)O1 (stereo not given) , report GI50.
-- reply 37.3 µM (inactive)

-- ask Supply recorded GI50 for COc1cc2c(c(O)c1OC)C(=O)C(Cc1ccc(O)cc1)CO2 (stereo not given) here.
-- reply 32.9 µM (inactive)

-- ask Quickly give me recorded GI50 for COc1ccc(CC2=NCCc3cc(OC)c(OC)cc32)cc1Br
-- reply 5.78 µM (inactive)

-- ask Supply measured GI50 of Nc1ccccc1N/C=C\C(=O)C(Cl)(Cl)Cl in your reply.
-- reply 15 µM (inactive)

-- ask Please indicate GI50 recorded for CC(=O)N/N=C1\NC(=O)C[C@H]2[C@@H]3CC=C4C[C@@H](OC(C)=O)CC[C@]4(C)[C@H]3CC[C@]12C
-- reply 16 µM (inactive)

-- ask Indicate the recorded GI50 value for this compound: CCCCCC(=O)N[C@H](C(=O)N[C@H](C(=O)N(C)[C@H](C(=O)N1CCC[C@H]1C(=O)N1CCC[C@H]1C(=O)O[C@H](C(=O)N1C(=O)C=C(OC)[C@@H]1Cc1ccccc1)C(C)C)C(C)C)C(C)C)C(C)C (Hexanoyl-VV[NMeV]PP-X26)
-- reply 57.9 µM (inactive)

-- ask Tell me its GI50 given Cc1ccnc2nc(-c3ccc4ccccc4c3)cc(O)c12 as the entry.
-- reply 1.52 µM (inactive)

-- ask Tell me measured GI50 for O=[N+]([O-])c1cc2no[n+]([O-])c2cc1N1CCCCC1 please.
-- reply 1.29 µM (inactive)
